Data provenance is patent US20260144882A1.

- measurement target: T1, human Nectin-4 extracellular antigen hNectin-4-His (human, UniProt Q96NY8 32-349)
- T1 construct: C-terminal 8xHis tag included
- T1 sequence: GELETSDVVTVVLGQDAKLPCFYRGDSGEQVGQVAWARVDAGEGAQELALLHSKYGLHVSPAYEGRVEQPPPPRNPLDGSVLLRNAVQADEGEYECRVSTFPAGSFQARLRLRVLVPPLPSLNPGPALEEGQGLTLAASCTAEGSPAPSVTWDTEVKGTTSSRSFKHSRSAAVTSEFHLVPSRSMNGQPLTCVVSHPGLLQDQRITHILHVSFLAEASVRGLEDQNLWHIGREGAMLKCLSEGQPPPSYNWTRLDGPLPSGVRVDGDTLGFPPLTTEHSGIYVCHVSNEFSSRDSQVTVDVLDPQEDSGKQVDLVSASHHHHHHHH
- experimental details: ELISA, phage scFv supernatant 1:50
endpoint label: OD value (OD)

binder: 1G8-2B5 scFv (scFv, V domains shown, phage clone supernatant) VH: EVQLVESGGGLVQPGGSLRLSCAASGYNFGNYAMSWVRQAPGKGLEWVSRIKSHDSTSHYADSVKGRFTISRDNSKNTLYLQMNSLRAEDTAVYYCARQTEDRSYGYDLDYWGQGTLVTVSS VL: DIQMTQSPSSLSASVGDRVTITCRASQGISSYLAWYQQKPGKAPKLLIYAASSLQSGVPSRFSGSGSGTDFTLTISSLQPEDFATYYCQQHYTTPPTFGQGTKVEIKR
quantitative readout: 1.58
//
binder: 1F3-1G7 scFv (scFv, V domains shown, phage clone supernatant) VH: EVQLVESGGGLVQPGGSLRLSCAASGDIFSNYSMSWVRQAPGKGLEWVSGIYPSGDSRRYADSVKGRFTISRDNSKNTLYLQMNSLRAEDTAVYYCARAELLAFDVYTASDYWGQGTLVTVSS VL: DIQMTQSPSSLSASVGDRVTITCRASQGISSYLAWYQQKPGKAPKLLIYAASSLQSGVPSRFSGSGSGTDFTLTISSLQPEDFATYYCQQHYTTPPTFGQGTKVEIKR
quantitative readout: 1.56
//
binder: 1F3-2B2 scFv (scFv, V domains shown, phage clone supernatant) VH: EVQLVESGGGLVQPGGSLRLSCAASGYNFYSYGMSWVRQAPGKGLEWVSIISPDGGYKRYADSVKGRFTISRDNSKNTLYLQMNSLRAEDTAVYYCARAELLAFDVYTASDYWGQGTLVTVSS VL: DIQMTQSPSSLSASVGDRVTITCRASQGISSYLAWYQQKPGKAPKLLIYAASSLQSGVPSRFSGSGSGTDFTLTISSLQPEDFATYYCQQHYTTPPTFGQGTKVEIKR
quantitative readout: 1.57
//
binder: 10F4-5 scFv (scFv, V domains shown, phage clone supernatant) VH: EVQLVESGGGLVQPGGSLRLSCAASGFIFDGYDMSWVRQAPGKGLEWVSVIKDHGGYKFYADSVKGRFTISRDNSKNTLYLQMNSLRAEDTAVYYCAREYSDVVDYVSVRTPLDYWGQGTLVTVSS VL: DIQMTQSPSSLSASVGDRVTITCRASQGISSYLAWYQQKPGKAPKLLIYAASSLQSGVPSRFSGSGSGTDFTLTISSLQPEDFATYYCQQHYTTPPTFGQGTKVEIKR
quantitative readout: 1.31
//
binder: 1G8-2F9 scFv (scFv, V domains shown, phage clone supernatant) VH: EVQLVESGGGLVQPGGSLRLSCAASGYSFSNYAMSWVRQAPGKGLEWVSRISAWGSTNNYADSVKGRFTISRDNSKNTLYLQMNSLRAEDTAVYYCARQTEDRSYGYDLDYWGQGTLVTVSS VL: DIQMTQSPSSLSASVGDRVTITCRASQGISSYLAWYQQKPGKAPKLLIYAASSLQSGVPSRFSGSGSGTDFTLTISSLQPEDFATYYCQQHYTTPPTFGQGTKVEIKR
quantitative readout: 1.56
//
binder: 1G8-2H1 scFv (scFv, V domains shown, phage clone supernatant) VH: EVQLVESGGGLVQPGGSLRLSCAASGYSFYSYAMSWVRQAPGKGLEWVSRISQGGGVTHYADSVKGRFTISRDNSKNTLYLQMNSLRAEDTAVYYCARQTEDRSYGYDLDYWGQGTLVTVSS VL: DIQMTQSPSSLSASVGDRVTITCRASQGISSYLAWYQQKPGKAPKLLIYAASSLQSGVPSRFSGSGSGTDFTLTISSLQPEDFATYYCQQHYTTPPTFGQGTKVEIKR
quantitative readout: 1.58
//
binder: 1F3-2E12 scFv (scFv, V domains shown, phage clone supernatant) VH: EVQLVESGGGLVQPGGSLRLSCAASGGNFTNSGMSWVRQAPGKGLEWVSGIKWSSDETYYADSVKGRFTISRDNSKNTLYLQMNSLRAEDTAVYYCARAELLAFDVYTASDYWGQGTLVTVSS VL: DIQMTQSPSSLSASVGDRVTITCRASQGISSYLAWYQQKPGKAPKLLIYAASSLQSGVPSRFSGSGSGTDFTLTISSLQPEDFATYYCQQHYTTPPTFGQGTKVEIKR
quantitative readout: 1.52
//
binder: 1G8-2D6 scFv (scFv, V domains shown, phage clone supernatant) VH: EVQLVESGGGLVQPGGSLRLSCAASGFSFDGYAMSWVRQAPGKGLEWVSRISAHSWNKDYADSVKGRFTISRDNSKNTLYLQMNSLRAEDTAVYYCARQTEDRSYGYDLDYWGQGTLVTVSS VL: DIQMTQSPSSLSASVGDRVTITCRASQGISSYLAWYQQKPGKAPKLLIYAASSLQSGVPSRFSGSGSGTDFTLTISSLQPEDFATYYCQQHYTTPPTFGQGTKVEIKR
quantitative readout: 1.63
//
binder: 1F3-1G11 scFv (scFv, V domains shown, phage clone supernatant) VH: EVQLVESGGGLVQPGGSLRLSCAASGYSFTGYGMSWVRQAPGKGLEWVSGISPSGGTIGYADSVKGRFTISRDNSKNTLYLQMNSLRAEDTAVYYCARAELLAFDVYTASDYWGQGTLVTVSS VL: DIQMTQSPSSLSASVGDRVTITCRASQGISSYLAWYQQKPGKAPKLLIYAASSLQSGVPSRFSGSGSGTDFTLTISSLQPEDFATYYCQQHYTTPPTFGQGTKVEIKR
quantitative readout: 1.65
//
binder: 1G8-2H9 scFv (scFv, V domains shown, phage clone supernatant) VH: EVQLVESGGGLVQPGGSLRLSCAASGFNFGNYAMSWVRQAPGKGLEWVSAIYSYFDEPRYADSVKGRFTISRDNSKNTLYLQMNSLRAEDTAVYYCARQTEDRSYGYDLDYWGQGTLVTVSS VL: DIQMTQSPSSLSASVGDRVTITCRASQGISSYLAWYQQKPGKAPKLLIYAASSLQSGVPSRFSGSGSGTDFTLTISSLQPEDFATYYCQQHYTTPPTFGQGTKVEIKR
quantitative readout: 1.46
